- measured.target: Human CD3eg linker (human)
- Sequence (chain, as listed by the source limits assumed): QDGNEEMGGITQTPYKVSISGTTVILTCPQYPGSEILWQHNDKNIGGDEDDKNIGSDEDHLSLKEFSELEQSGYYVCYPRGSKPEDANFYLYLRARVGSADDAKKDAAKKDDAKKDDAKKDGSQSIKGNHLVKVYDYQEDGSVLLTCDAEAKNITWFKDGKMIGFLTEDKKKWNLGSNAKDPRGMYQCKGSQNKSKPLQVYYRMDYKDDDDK
- assay.name: SPR; fold vs parent H183/L072
readout.label: fold change of affinity (fold)
Answer format: numeric, fold implied, no suffix.

Answered cases to consult:
H183/L072 VL V51N (antibody, name in Kabat numbering, V domains shown) VH: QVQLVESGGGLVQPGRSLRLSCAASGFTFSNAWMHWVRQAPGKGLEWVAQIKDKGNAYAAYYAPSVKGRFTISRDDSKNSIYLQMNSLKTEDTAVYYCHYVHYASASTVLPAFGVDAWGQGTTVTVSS VL: DIVMTQSPLSLPVTPGEPASISCQASQELVHMNRNTYLHWYQQKPGQAPRLLIYKNSNRFPGVPDRFSGSGSGTDFTLKISRVEAEDVGVYYCAQGTSVPFTFGQGTKLEIK : 0
H183/L072 VL Q90M (antibody, name in Kabat numbering, V domains shown) VH: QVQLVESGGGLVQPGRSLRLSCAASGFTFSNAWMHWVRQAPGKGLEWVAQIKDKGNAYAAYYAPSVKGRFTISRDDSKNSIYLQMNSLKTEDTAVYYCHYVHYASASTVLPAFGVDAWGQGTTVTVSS VL: DIVMTQSPLSLPVTPGEPASISCQASQELVHMNRNTYLHWYQQKPGQAPRLLIYKVSNRFPGVPDRFSGSGSGTDFTLKISRVEAEDVGVYYCAMGTSVPFTFGQGTKLEIK : 0

Now for the binder whose fold change of affinity we want.
// fold change of affinity lookup, binder = H183/L072 VL L33Y (antibody, name in Kabat numbering, V domains shown) VH: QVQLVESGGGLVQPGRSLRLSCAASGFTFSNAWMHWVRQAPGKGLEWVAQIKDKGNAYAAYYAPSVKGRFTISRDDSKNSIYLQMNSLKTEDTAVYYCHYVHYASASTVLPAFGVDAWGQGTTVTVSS VL: DIVMTQSPLSLPVTPGEPASISCQASQELVHMNRNTYYHWYQQKPGQAPRLLIYKVSNRFPGVPDRFSGSGSGTDFTLKISRVEAEDVGVYYCAQGTSVPFTFGQGTKLEIK , result: 0

# credit: patent US20210388087A1
